List of pKi tested on α2D-adrenoceptors (Rattus norvegicus).
Sequence (P22909 whole entry): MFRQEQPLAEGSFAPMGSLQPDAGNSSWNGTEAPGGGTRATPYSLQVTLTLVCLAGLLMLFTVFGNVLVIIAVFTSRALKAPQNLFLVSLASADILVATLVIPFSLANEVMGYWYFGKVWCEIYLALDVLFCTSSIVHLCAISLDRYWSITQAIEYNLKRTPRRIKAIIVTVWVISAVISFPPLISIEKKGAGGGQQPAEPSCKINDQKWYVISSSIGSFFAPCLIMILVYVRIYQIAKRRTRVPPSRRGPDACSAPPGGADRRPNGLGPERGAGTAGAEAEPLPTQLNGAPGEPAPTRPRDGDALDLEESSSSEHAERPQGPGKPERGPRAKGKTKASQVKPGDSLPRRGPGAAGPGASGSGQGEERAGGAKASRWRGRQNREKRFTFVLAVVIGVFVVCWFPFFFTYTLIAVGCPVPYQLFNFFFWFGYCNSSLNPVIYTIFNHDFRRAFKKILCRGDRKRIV
Kindly note that pKi refers to -log10 of the concentration in mol/L and answer with the value alone.

Take a look at these entries with their results.
>  <compound>
Nc1c(CN2CCN(c3cccc4c3OCCO4)CC2)c(C2CCCC2)nn1-c1ccccc1 [Example 21]

>  <pKi>
7.49

$$$$
>  <compound>
Nc1nn(-c2ccccc2)c(N)c1CN1CCN(c2cccc3c2OCCO3)CC1 [Example 11]

>  <pKi>
7.22

$$$$
>  <compound>
Nc1c(CN2CCN(c3cccc4c3OCCO4)CC2)c(C2CC2)nn1Cc1ccccc1 [Example 26]

>  <pKi>
8.05

$$$$
>  <compound>
Cn1nc(-c2ccccc2)c(CN2CCN(c3cccc4c3OCCO4)CC2)c1N [Example 13]

>  <pKi>
6.81

$$$$
>  <compound>
COc1ccccc1N1CCN(Cn2nc(-c3ccc(Cl)cc3)n(-c3cccnc3)c2=S)CC1 [Example 48]

>  <pKi>
7.15

$$$$

Quick one: pKi for CC(C)(C)n1nc(C2CC2)c(CN2CCN(c3cccc4c3OCCO4)CC2)c1N [Example 24] ?
7.89

* * *

- test target: D2 dopamine receptors (Rattus norvegicus)
- assay procedure: inhibition of tritiated (S)-sulpiride binding to D2 dopamine receptors in vitro
- reported conditions: rat striatum, tritiated (S)-sulpiride 1 nM, 4° C., 40 min
The following molecules are shown together with reported Ki values.
Report only the number, with the unit nM understood.

>  <structure smiles>
C=CCn1c(-c2cccnc2)nn(CN2CCN(c3ccccc3OC)CC2)c1=S

>  <output unit>
nM

>  <Ki>
262

$$$$
>  <structure smiles>
Cn1c(N)c(CN2CCN(c3cccc4c3OCCO4)CC2)c(=O)n1-c1ccccc1

>  <output unit>
nM

>  <Ki>
196

$$$$

Find the measured Ki: item `Nc1c(CN2CCN(c3cccc4c3OCCO4)CC2)c(C2CC2)nn1-c1ccc(Cl)cc1` , target or system D2 dopamine receptors (Rattus norvegicus).
445

* * *

Catalogue of pKi values
- test target: D2 dopamine receptors (Rattus norvegicus, UniProt P61169)
- Sequence (P61169 whole entry): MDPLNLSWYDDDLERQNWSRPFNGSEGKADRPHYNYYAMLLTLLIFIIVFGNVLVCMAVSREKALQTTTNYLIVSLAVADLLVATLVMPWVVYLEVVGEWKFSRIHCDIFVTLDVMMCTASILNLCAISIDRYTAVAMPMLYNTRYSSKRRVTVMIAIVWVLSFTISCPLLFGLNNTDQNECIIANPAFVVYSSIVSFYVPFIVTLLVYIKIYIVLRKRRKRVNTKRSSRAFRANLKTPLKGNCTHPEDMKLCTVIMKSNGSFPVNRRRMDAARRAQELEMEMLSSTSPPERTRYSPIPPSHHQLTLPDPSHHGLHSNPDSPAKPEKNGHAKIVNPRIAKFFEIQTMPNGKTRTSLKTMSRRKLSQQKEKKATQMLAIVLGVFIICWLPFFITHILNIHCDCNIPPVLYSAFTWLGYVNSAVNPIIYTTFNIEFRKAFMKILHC
- assay procedure: inhibition of tritiated (S)-sulpiride binding to D2 dopamine receptors in vitro
- reported conditions: rat striatum, tritiated (S)-sulpiride 1 nM, 4° C., 40 min
API: returns pKi as number; meaning -log10 of concentration in mol/L.

Example molecules with recorded pKi:
>  <molecule>
COc1ccccc1N1CCN(Cc2c(N)n(C)n(-c3ccccc3)c2=O)CC1

>  <pKi>
6.72

$$$$
>  <molecule>
C=CCn1c(-c2cccnc2)nn(CN2CCN(c3cccc4c3OCCO4)CC2)c1=S

>  <pKi>
6.49

$$$$
>  <molecule>
C=CCn1c(-c2cccnc2)nn(CN2CCN(c3ccccc3OC)CC2)c1=O

>  <pKi>
6.71

$$$$
>  <molecule>
CC(C)Oc1ccccc1N1CCN(Cc2c(C3CC3)nn(-c3ccccc3)c2N)CC1

>  <pKi>
6.96

$$$$
>  <molecule>
C=CCn1c(N)c(CN2CCN(c3cccc4c3OCCO4)CC2)c(=O)n1-c1ccccc1

>  <pKi>
6.86

$$$$
>  <molecule>
COc1ccccc1N1CCN(CC2(C)N=C(c3cccnc3)NC2=O)CC1 (stereo not shown)

>  <pKi>
6.53

$$$$
>  <molecule>
COc1ccccc1N1CCN(Cn2nc(-c3ccc(Cl)cc3)n(-c3cccnc3)c2=S)CC1

>  <pKi>
6.70

$$$$
>  <molecule>
Nc1nn(-c2ccccc2)c(N)c1CN1CCN(c2cccc3c2OCCO3)CC1

>  <pKi>
6.51

$$$$
>  <molecule>
C=CCn1c(-c2ccccc2)nn(CCCCN2CCN(c3ccccc3OC)CC2)c1=O.Cl.Cl [Example 66, dihydrochloride]

>  <pKi>
6.77

$$$$
>  <molecule>
C=CCN1C(=O)C(C)(CN2CCN(c3cccc4c3OCCO4)CC2)N=C1c1cccnc1 (stereo not shown)

>  <pKi>
6.46

$$$$

Query (molecule): CC1(CN2CCN(c3cccc4c3OCCO4)CC2)N=C(c2cccnc2)NC1=O (stereo not shown) ; field requested: pKi
6.50

Name the recorded pKi for COc1ccccc1N1CCN(CC2(C)N=C(c3ccccc3)NC2=O)CC1 (stereo not shown) .
6.57

Looking for the measured pKi of `C=CCn1c(-c2ccccc2)nn(CN2CCN(c3ccccc3OC)CC2)c1=S` , can you help?
6.65

Any idea what pKi was measured for `CC(C)Oc1ccccc1N1CCN(Cc2c(N)n(C)n(-c3ccccc3)c2=O)CC1` ?
7.66

Please look up its pKi: `C=CCn1c(-c2cccnc2)nn(CCCCN2CCN(c3cccc(C)c3C)CC2)c1=O`
7.03

Can you look up the measured pKi of `Cn1nc(C2CCC2)c(CN2CCN(c3cccc4c3OCCO4)CC2)c1N` for me?
6.58

I have this molecule here, `C=CCn1c(-c2cccs2)nn(CN2CCN(c3ccccc3OC)CC2)c1=S` , and I need its recorded pKi.
6.81

Data request, read-out pKi, for CC1(CN2CCN(c3cccc(C(F)(F)F)c3)CC2)N=C(c2ccccc2)NC1=O (stereo not shown)
6.89

# query: pKi of entry `C=CCn1c(C)nn(CN2CCN(c3ccccc3OC)CC2)c1=S`
6.51

For `C=CCn1c(-c2ccc(Cl)cc2)nn(CN2CCN(c3ccccc3OC)CC2)c1=S` , what is its reported pKi?
6.70

What value of pKi has been reported for the following molecule? `C=CCn1c(-c2ccccn2)nn(CN2CCN(c3ccccc3OC)CC2)c1=S`
6.76
